Experimental system: PPIA (Homo sapiens, UniProt P62937)
Construct: Full length PPIA (residues 1-165) with an N-terminal 6×his-yBBR-TEV tag; 6×his-yBBR-TEV (N); made in house; host or cells: E. coli BL21 (DE3) CodonPlus RIPL
Sequence (P62937 whole entry, the tested form may be a part): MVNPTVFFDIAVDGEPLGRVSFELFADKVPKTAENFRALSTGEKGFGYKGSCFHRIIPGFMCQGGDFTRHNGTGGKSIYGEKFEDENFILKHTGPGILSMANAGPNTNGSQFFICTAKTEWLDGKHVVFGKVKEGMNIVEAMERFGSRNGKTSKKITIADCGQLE
Assay overview: Phage Library Screening with NGS, PPIA
Assay type: binding
Experimental parameters: target concentration 1000, second column
Lab note: anything with phage screen counts, Target Concentration 1000 below 30 is marked satisfied; values at 30 or higher are marked not satisfied.

>>> df
    ordered_residues          group
0  DPAAHDCHIAAYWCLNY  not satisfied
1  DPARADCRVAAYWCYHQ      satisfied
2  DPATMNCHVAAYFCIVE      satisfied
3        PTCHIDAWVCY      satisfied
4        PNCHVEAYFCM  not satisfied
5  DPAQHDCHVAAYQCIWE  not satisfied
6        PNCHVMAYWCW      satisfied
7  DPAAFSCHVAAWQCHTL  not satisfied
8        PDCHIRAYMCN      satisfied
9        PDCHVAAWMCF      satisfied

* * *

Experimental system: RNF31 UBA domain (Homo sapiens)
Construct: RNF31 UBA domain protein (residues 480-639) with N-terminal Thioredoxin-TEV-6×his-yBBr-3C tags; Thioredoxin (N, cleaved yes); made in house; host or cells: E. coli BL21 (DE3) pLysS
Sequence (Q96EP0 480-639): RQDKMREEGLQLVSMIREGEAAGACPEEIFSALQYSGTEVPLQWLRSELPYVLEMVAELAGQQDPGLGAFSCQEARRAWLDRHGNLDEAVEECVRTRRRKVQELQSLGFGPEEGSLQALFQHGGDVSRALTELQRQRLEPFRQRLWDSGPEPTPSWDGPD
Assay overview: Phage Library Screening with NGS, RNF31 UBA domain
Format: binding
Experimental parameters: Target Concentration 30; no competitor
phage screen NGS read-out at Target Concentration 30 for assorted sequences
Quantity name: phage screen NGS read-out at Target Concentration 30

>>> print(df.to_string())
                         ordered_residues              experimental_system  quantitative_result
 0                      DPASMVCLSAAVYCAMH  RNF31 UBA domain (Homo sapiens)                   15
 1                      DPAFSTCVYAAVFCQNT  RNF31 UBA domain (Homo sapiens)                    0
 2                      DPAYEHCVAAAYWCYLL  RNF31 UBA domain (Homo sapiens)                    0
 3                      DPARWVCELAAQNCLYR  RNF31 UBA domain (Homo sapiens)                    1
 4                      DPAFSRCVYAAVACEDH  RNF31 UBA domain (Homo sapiens)                    1
 5                      DPASIICMLAADNCLYE  RNF31 UBA domain (Homo sapiens)                    0
 6                      DPAFSRCVYAAFTCQTF  RNF31 UBA domain (Homo sapiens)                    0
 7                      DPALQHCAAAASWCWLM  RNF31 UBA domain (Homo sapiens)                    2
 8                      DPAAFVCEMAANDCLYT  RNF31 UBA domain (Homo sapiens)                    1
 9                      DPARYHCEAAAAWCELL  RNF31 UBA domain (Homo sapiens)                    0
10                      DPAAYLCDMAAHNCLYL  RNF31 UBA domain (Homo sapiens)                    0
11                      DPASSHCQSAAIWCYLM  RNF31 UBA domain (Homo sapiens)                    0
12                      DPALSTCVYAAVMCQDV  RNF31 UBA domain (Homo sapiens)                    0
13  DPAREHCAAAATWCOLL (DPAREHCAAAATWCQLL)  RNF31 UBA domain (Homo sapiens)                    0
14                      DPAFSACVYAAYMCNQD  RNF31 UBA domain (Homo sapiens)                    0
15                      DPAREHCDSAAIFCYIL  RNF31 UBA domain (Homo sapiens)                    0
16                      DPATQHCLAAAMWCHLI  RNF31 UBA domain (Homo sapiens)                    0
17                      DPAQQHCSAAAAWCVVL  RNF31 UBA domain (Homo sapiens)                    0
18                      DPATLVCTMAANNCIYR  RNF31 UBA domain (Homo sapiens)                    0
19                      DPAFSLCVYAAVECDHA  RNF31 UBA domain (Homo sapiens)                    0
20                      DPAREHCDSAAAWCWVL  RNF31 UBA domain (Homo sapiens)                    0
21                      DPAFSMCVYAAVTCVST  RNF31 UBA domain (Homo sapiens)                    0
22                      DPAFSECVYAAFSCSWI  RNF31 UBA domain (Homo sapiens)                    2
23                      DPALTHCTAAAYWCYVM  RNF31 UBA domain (Homo sapiens)                    0
24                      DPAITHCTAAAMWCHLL  RNF31 UBA domain (Homo sapiens)                    0
25                      DPAHEHCTSAAAWCMLL  RNF31 UBA domain (Homo sapiens)                    0
26                      DPAEWICEMAAHNCLYM  RNF31 UBA domain (Homo sapiens)                    1
27                      DPAFSQCVYAAFFCREI  RNF31 UBA domain (Homo sapiens)                    0
28                      DPADLICQLAAANCIYL  RNF31 UBA domain (Homo sapiens)                    0
29                      DPAQVHCRSAAAWCILM  RNF31 UBA domain (Homo sapiens)                    0
30                      DPAFSTCIYAAVMCMDQ  RNF31 UBA domain (Homo sapiens)                    0
31                      DPAHEHCTAAASWCYIL  RNF31 UBA domain (Homo sapiens)                    0
32                      DPAFYECVYAAVTCTQF  RNF31 UBA domain (Homo sapiens)                    0
33                      DPADWTCVLAAHNCLYT  RNF31 UBA domain (Homo sapiens)                    0
34                      DPAFFTCVYAAVTCEMT  RNF31 UBA domain (Homo sapiens)                    0

* * *

Experimental system: beta-catenin (Homo sapiens, UniProt P35222)
Construct: made in house; host or cells: E. coli BL21 (DE3) pLysS
Sequence (P35222 134-665): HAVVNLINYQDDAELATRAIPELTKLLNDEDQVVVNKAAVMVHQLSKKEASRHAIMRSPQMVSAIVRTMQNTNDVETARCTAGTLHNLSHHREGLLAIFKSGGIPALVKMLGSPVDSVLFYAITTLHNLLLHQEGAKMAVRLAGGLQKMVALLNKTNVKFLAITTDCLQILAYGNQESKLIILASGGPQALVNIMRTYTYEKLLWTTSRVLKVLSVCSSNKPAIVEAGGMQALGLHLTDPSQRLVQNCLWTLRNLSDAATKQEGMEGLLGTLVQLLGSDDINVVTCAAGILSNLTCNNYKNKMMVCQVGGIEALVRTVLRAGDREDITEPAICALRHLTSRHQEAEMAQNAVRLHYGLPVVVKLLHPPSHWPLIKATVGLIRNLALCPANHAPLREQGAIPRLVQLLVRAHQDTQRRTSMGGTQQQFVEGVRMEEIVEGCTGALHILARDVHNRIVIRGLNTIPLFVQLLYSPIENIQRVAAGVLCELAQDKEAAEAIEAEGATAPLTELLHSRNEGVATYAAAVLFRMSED
Assay overview: Phage Library Screening with NGS, beta-catenin
Type: binding
Experimental parameters: beta-catenin target concentration 10; no competitor
Target Concentration 10 (phage screen NGS readout) for assorted sequences
Quantity name: Target Concentration 10 (phage screen NGS readout)

>>> print(df.to_string())
     ordered_residues  quantitative_result
 0  DPAIADCDWAAEHCDLL                    0
 1  DPAEWICEHAALLCSVL                    0
 2  DPAFLDCHIAAWTCNEF                    0
 3  DPAFESCFLAAHICYWE                    2
 4  DPAIIRCYEAAFYCQNY                    0
 5  DPAQFYCEHAALLCRWE                    0
 6  DPAQNICEWAALHCDLI                    0
 7  DPAVLQCYEAAFICEYM                    0
 8  DPAIMACYQAAFWCQYN                    0
 9  DPAILECHVAALDCQMW                    0
10  DPAWILCDWAAMHCELV                    0
11  DPAVEDCVLAAHVCAWF                    0
12  DPAMIQCQWAAEHCELI                    0
13  DPAYWDCTHAALLCNLD                    3
14  DPAIMACYEAAYLCDYI                    2
15  DPAEIICYEAAFLCQYQ                    0
16  DPAMSQCNWAAVHCQLL                    6
17  DPAEHDCMLAAHFCRHF                    8
18  DPAQQDCTLAAHVCRVF                    0
19  DPAIFNCTMAALECTQI                    0
20  DPAILDCHIAAIQCFHD                    2
21  DPAEWYCEHAALVCTNH                    0
22  DPAVIACYDAAFVCEYF                    0
23  DPAYWVCEHAALLCTDY                    5
24  DPAILTCYEAAFTCQYQ                    0
25  DPAENTCSWAAEHCALV                    0
26  DPADYDCILAAHICTNI                    2
27  DPAILNCHVAAWNCHSF                    0
28  DPAEVDCIMAAHICVWD                    0
29  DPAILDCQIAAIECEFA                    0
30  DPAILECYEAAFECQYM                    7
31  DPALWNCDHAALLCDHQ                    0
32  DPAHWHCEHAALLCASV                    2
33  DPAILECHMAAFECYIE                    8
34  DPAVLECHIAAWECRMD                    0
35  DPANVECEWAAIHCSLV                   13
36  DPAWQNCTWAAFHCELL                    0
37  DPAEFYCEMAAVHCELL                    2
38  DPAVIQCYQAAFHCDYQ                    0
39  DPAVQDCEWAAIYCELI                    0
40  DPAHWVCEHAALNCDQN                    0
41  DPAQSDCDWAAEHCNLI                    0
42  DPAVLDCHIAALDCHAH                    0
43  DPAYTYCQWAAEHCSLL                    5
44  DPAVVECYEAAYTCQYI                    0
45  DPAVDECIIAAHICHIW                    0
46  DPAEWDCMHAALICEVH                    0
47  DPAEADCMMAAHICSNI                    0
48  DPASWDCDHAALLCTLD                    3
49  DPAWWQCDHAALICIAE                   28
50  DPAQWACEHAALLCSMD                    6
51  DPAHWRCEHAALLCWYN                   13
52  DPAELACEWAAIHCELV                    0
53  DPADDFCMWAAEHCELL                   10
54  DPAMWICEHAALNCEIR                    2

Just for reference, patent US20240376151A1 is where these values come from.
